TESTED_ON: human S1P1 receptors (Homo sapiens, UniProt P21453)
Sequence (P21453 whole entry): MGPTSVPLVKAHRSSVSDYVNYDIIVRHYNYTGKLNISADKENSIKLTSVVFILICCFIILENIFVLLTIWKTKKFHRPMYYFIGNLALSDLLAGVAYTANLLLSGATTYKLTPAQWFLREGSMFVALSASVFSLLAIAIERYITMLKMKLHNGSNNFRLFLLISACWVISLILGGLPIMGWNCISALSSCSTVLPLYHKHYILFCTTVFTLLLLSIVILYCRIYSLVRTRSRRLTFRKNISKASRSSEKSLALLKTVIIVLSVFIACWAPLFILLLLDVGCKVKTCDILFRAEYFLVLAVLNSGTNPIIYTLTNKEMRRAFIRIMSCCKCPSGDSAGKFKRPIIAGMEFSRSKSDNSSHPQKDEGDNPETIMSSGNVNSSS
PROCEDURE_SUMMARY: S1P1R antagonist assay (fluorescent membrane potential dye, cAMP readout)
EXPERIMENTAL_CONTEXT: HEK293 cells expressing human S1P1 receptors and CNG channel; 500 nM NECA; S1P1R agonist 10 nM; 90 minutes; read-out: EC50 or IC50 value
MEASURE_NAME: IC50

{"COMPOUND": "O=C(Cc1ccccn1)N[C@@H](COCc1ccccc1)C(=O)Nc1ccc(Oc2ccc(F)cc2)cc1 [Compound 246]", "VALUE_MEASURED": "≤ 300 nM"}
{"COMPOUND": "O=C(Nc1ccc(Oc2ccc(F)cc2)cc1)[C@@H]1C[C@@H](Cc2ccccc2F)CN1C(=O)Cn1ccnn1 [Compound 264]", "VALUE_MEASURED": "≤ 300 nM"}
{"COMPOUND": "O=C(Cc1cnc[nH]1)N[C@@H](COCc1ccccc1)C(=O)Nc1ccc(Oc2ccc(Cl)cc2)cc1 [Compound 145]", "VALUE_MEASURED": "≤ 300 nM"}
{"COMPOUND": "O=C(Nc1ccc(Oc2ccc(F)cc2)cc1)[C@@H]1C[C@@H](Cc2ccc(F)cc2)CN1C(=O)Cn1nccn1 [Compound 50]", "VALUE_MEASURED": "≤ 300 nM"}
{"COMPOUND": "O=C(Cc1c(F)ccc(F)c1F)NC(COCc1ccccc1)C(=O)Nc1ccc(Oc2ccccc2)cc1 (stereo not drawn) [Compound 361]", "VALUE_MEASURED": "> 1000 nM"}
{"COMPOUND": "O=C(Cc1cc(Cl)ccc1F)NC(COCc1ccccc1)C(=O)Nc1ccc(Oc2ccccc2)cc1 (stereo not drawn) [Compound 192]", "VALUE_MEASURED": "300 to 1000 nM"}
{"COMPOUND": "O=C(Cc1ccc2c(c1)OCO2)NC(COCc1ccccc1)C(=O)Nc1ccc(Oc2ccccc2)cc1 (stereo not drawn) [Compound 328]", "VALUE_MEASURED": "> 1000 nM"}
{"COMPOUND": "O=C(Cc1cnc[nH]1)N[C@@H](CCCc1ccccc1)C(=O)Nc1ccc(Oc2ccccc2)cc1 [Compound 1]", "VALUE_MEASURED": "≤ 300 nM"}
{"COMPOUND": "Cc1n[nH]c(C)c1CC(=O)N[C@@H](COCc1ccccc1)C(=O)Nc1ccc(Oc2ccc(F)cc2)cc1 [Compound 152]", "VALUE_MEASURED": "≤ 300 nM"}
{"COMPOUND": "O=C(Nc1ccc(Oc2ccc(Cl)cc2)cc1)[C@@H]1C[C@@H](Cc2ccccc2)CN1C(=O)Cn1cncn1 [Compound 79]", "VALUE_MEASURED": "≤ 300 nM"}
{"COMPOUND": "O=C(CCl)N[C@@H](COCc1ccccc1)C(=O)Nc1ccc(Oc2ccc(F)cc2)cc1 [Compound 136]", "VALUE_MEASURED": "≤ 300 nM"}
{"COMPOUND": "O=C(Nc1ccc(Oc2ccccc2)cc1)C(COCc1ccccc1)NC(=O)[C@H]1CCCO1 (stereo partly drawn) [Compound 23]", "VALUE_MEASURED": "> 1000 nM"}
{"COMPOUND": "Cc1cccc(C[C@@H]2C[C@@H](C(=O)Nc3ccc(Oc4ccc(F)cc4)cc3)N(C(=O)Cn3cncn3)C2)c1 [Compound 171]", "VALUE_MEASURED": "≤ 300 nM"}
{"COMPOUND": "CC(=O)Nc1nc(C)c(S(=O)(=O)NC(COCc2ccccc2)C(=O)Nc2ccc(Oc3ccccc3)cc2)s1 (stereo not drawn) [Compound 305]", "VALUE_MEASURED": "≤ 300 nM"}
{"COMPOUND": "COC(=O)CCC(=O)N1C[C@H](Cc2ccccc2)C[C@H]1C(=O)Nc1ccc(Oc2ccc(F)cc2)cc1 [Compound 125]", "VALUE_MEASURED": "≤ 300 nM"}

---

TESTED_ON: human S1P1 receptors (Homo sapiens, UniProt P21453)
PROCEDURE_SUMMARY: S1P1R antagonist assay (fluorescent membrane potential dye, cAMP readout)
EXPERIMENTAL_CONTEXT: HEK293 cells expressing human S1P1 receptors and CNG channel; 500 nM NECA; S1P1R agonist 10 nM; 90 minutes; read-out: EC50 or IC50 value
In this section we review reported IC50 values for a set of compounds.

{"COMPOUND": "O=C(Cc1cc(Cl)ccc1Cl)N[C@@H](COCc1ccccc1)C(=O)Nc1ccc(Oc2ccccc2)cc1", "IC50": "300 to 1000 nM"}
{"COMPOUND": "CCN(CC)C(=O)C1CCCN(CC(=O)N[C@@H](COCc2ccccc2)C(=O)Nc2ccc(Oc3ccc(F)cc3)cc2)C1 (stereo partly shown)", "IC50": "300 to 1000 nM"}
{"COMPOUND": "O=C(Nc1ccc(Oc2ccc(F)cc2)cc1)[C@@H]1C[C@@H](Cc2ccc(Cl)cc2)CN1C(=O)Cn1nccn1", "IC50": "≤ 300 nM"}
{"COMPOUND": "Cc1nccn1CC(=O)N[C@@H](COCc1ccccc1)C(=O)Nc1ccc(Oc2ccc(F)cc2)cc1", "IC50": "≤ 300 nM"}

---

TESTED_ON: human S1P1 receptors (Homo sapiens, UniProt P21453)
PROCEDURE_SUMMARY: S1P1R antagonist assay (fluorescent membrane potential dye, cAMP readout)
EXPERIMENTAL_CONTEXT: HEK293 cells expressing human S1P1 receptors and CNG channel; 500 nM NECA; S1P1R agonist 10 nM; 90 minutes; read-out: EC50 or IC50 value

{"MOLECULE": "O=C(Cc1cnc[nH]1)N[C@@H](COCc1ccccc1)C(=O)Nc1ccc(Oc2ccccc2)cc1 [Compound 143]", "IC50": "≤ 300 nM"}
{"MOLECULE": "Cc1nc(C)n(CC(=O)N[C@@H](COCc2ccccc2)C(=O)Nc2ccc(Oc3ccc(F)cc3)cc2)n1 [Compound 256]", "IC50": "≤ 300 nM"}
{"MOLECULE": "O=C(CN1CCNCC1)N[C@@H](COCc1ccccc1)C(=O)Nc1ccc(Oc2ccc(F)cc2)cc1 [Compound 205]", "IC50": "≤ 300 nM"}
{"MOLECULE": "N#CCC(=O)N1C[C@H](Cc2ccccc2)C[C@H]1C(=O)Nc1ccc(Oc2ccc(F)cc2)cc1 [Compound 129]", "IC50": "≤ 300 nM"}
{"MOLECULE": "O=C(Nc1ccc(Oc2ccc(F)cc2)cc1)[C@@H]1C[C@@H](Cc2ccccc2F)CN1C(=O)Cn1cncn1 [Compound 106]", "IC50": "≤ 300 nM"}
{"MOLECULE": "O=C(NC(COCc1ccccc1)C(=O)Nc1ccc(Oc2ccccc2)cc1)c1cc2ccccc2o1 (centres unmarked) [Compound 366]", "IC50": "> 1000 nM"}
{"MOLECULE": "Cc1ccccc1C[C@@H]1C[C@@H](C(=O)Nc2ccc(Oc3ccc(F)cc3)cc2)N(C(=O)Cn2cncn2)C1 [Compound 55]", "IC50": "≤ 300 nM"}
{"MOLECULE": "CN(CC(=O)N[C@@H](COCc1ccccc1)C(=O)Nc1ccc(Oc2ccccc2)cc1)C(=O)c1ccccc1 [Compound 194]", "IC50": "300 to 1000 nM"}
{"MOLECULE": "CC(=O)N1CCN(CC(=O)N[C@@H](COCc2ccccc2)C(=O)Nc2ccc(Oc3ccc(F)cc3)cc2)CC1 [Compound 236]", "IC50": "300 to 1000 nM"}
{"MOLECULE": "CCOc1ccc(CC(=O)NC(COCc2ccccc2)C(=O)Nc2ccc(Oc3ccccc3)cc2)cc1 (centres unmarked) [Compound 343]", "IC50": "> 1000 nM"}
{"MOLECULE": "CC(=O)Oc1ccc(C(=O)NC(COCc2ccccc2)C(=O)Nc2ccc(Oc3ccccc3)cc2)cc1 (centres unmarked) [Compound 17]", "IC50": "> 1000 nM"}
{"MOLECULE": "C[C@@H]1CN(CC(=O)N[C@@H](COCc2ccccc2)C(=O)Nc2ccc(Oc3ccc(F)cc3)cc2)C[C@H](C)O1 [Compound 234]", "IC50": "300 to 1000 nM"}
{"MOLECULE": "O=C(CN1CCCC1)N[C@@H](COCc1ccccc1)C(=O)Nc1ccc(Oc2ccc(F)cc2)cc1 [Compound 215]", "IC50": "300 to 1000 nM"}
{"MOLECULE": "O=C(NC(COCc1ccccc1)C(=O)Nc1ccc(Oc2ccccc2)cc1)c1cccs1 (centres unmarked) [Compound 292]", "IC50": "> 1000 nM"}
{"MOLECULE": "O=C(CN1CCN(CC2CCCO2)CC1)N[C@@H](COCc1ccccc1)C(=O)Nc1ccc(Oc2ccc(F)cc2)cc1 (some centres unmarked) [Compound 110]", "IC50": "> 1000 nM"}
{"MOLECULE": "CC(C)(C(=O)N[C@@H](COCc1ccc(F)cc1)C(=O)Nc1ccc(Oc2ccc(F)cc2)cc1)c1c[nH]cn1 [Compound 161]", "IC50": "≤ 300 nM"}
{"MOLECULE": "O=C(Nc1ccc(Oc2ccc(F)cc2)cc1)[C@@H]1C[C@@H](Cc2ccc(F)cc2Cl)CN1C(=O)Cn1ccnn1 [Compound 2]", "IC50": "≤ 300 nM"}
{"MOLECULE": "CSCC(=O)NC(COCc1ccccc1)C(=O)Nc1ccc(Oc2ccccc2)cc1 (centres unmarked) [Compound 307]", "IC50": "≤ 300 nM"}
{"MOLECULE": "O=C(Nc1ccc(Oc2ccc(F)cc2)cc1)[C@@H]1C[C@@H](Cc2ccccc2)CN1C(=O)Cc1cccs1 [Compound 117]", "IC50": "≤ 300 nM"}
{"MOLECULE": "O=C(Nc1ccc(Oc2ccc(F)cc2)cc1)[C@@H]1C[C@@H](Cc2ccc(F)cc2)CN1C(=O)Cn1ccnn1 [Compound 75]", "IC50": "≤ 300 nM"}
{"MOLECULE": "Cn1cc(CC(=O)NC(COCc2ccccc2)C(=O)Nc2ccc(Oc3ccccc3)cc2)c2ccccc21 (centres unmarked) [Compound 364]", "IC50": "> 1000 nM"}
{"MOLECULE": "O=C1CC[C@@H](C(=O)N2C[C@H](Cc3ccccc3)C[C@H]2C(=O)Nc2ccc(Oc3ccc(F)cc3)cc2)O1 [Compound 39]", "IC50": "≤ 300 nM"}
{"MOLECULE": "O=C(Nc1ccc(Oc2ccc(F)cc2)cc1)[C@@H]1C[C@@H](OCc2ccccc2)CN1C(=O)Cn1cncn1 [Compound 252]", "IC50": "≤ 300 nM"}
{"MOLECULE": "O=C(NC(COCc1ccccc1)C(=O)Nc1ccc(Oc2ccccc2)cc1)c1ccc2ccccc2c1 (centres unmarked) [Compound 288]", "IC50": "> 1000 nM"}
{"MOLECULE": "O=C(NC(COCc1ccccc1)C(=O)Nc1ccc(Oc2ccccc2)cc1)c1cccnc1Oc1ccccc1 (centres unmarked) [Compound 290]", "IC50": "> 1000 nM"}
{"MOLECULE": "Cc1ccc(C(=O)NC(COCc2ccccc2)C(=O)Nc2ccc(Oc3ccccc3)cc2)cc1F (centres unmarked) [Compound 400]", "IC50": "> 1000 nM"}
{"MOLECULE": "O=C(NC(COCc1ccccc1)C(=O)Nc1ccc(Oc2ccccc2)cc1)c1ccc(OC(F)F)cc1 (centres unmarked) [Compound 399]", "IC50": "> 1000 nM"}
{"MOLECULE": "O=C(Nc1ccc(Oc2ccc(F)cc2)cc1)[C@@H]1C[C@@H](Cc2cccs2)CN1C(=O)Cn1nccn1 [Compound 64]", "IC50": "≤ 300 nM"}
{"MOLECULE": "O=C(NC(COCc1ccccc1)C(=O)Nc1ccc(Oc2ccccc2)cc1)c1cccc(Cl)c1 (centres unmarked) [Compound 275]", "IC50": "> 1000 nM"}
